System: S. aureus RN4220
run description: growth inhibition call (relative growth <= 0.2)
setup conditions: 50 µM
Among all 39,000 compounds or so, about 500 (1.3%) were called active. This is one part of a sample in which actives are shown more often than they occur.
Pick one and only one: Y for active, N for inactive

[[record]]
smiles_structure = "O=C(C[C@H]1CC[C@H]2[C@@H](COC[C@@H](O)CN2C(=O)Nc2cccc(F)c2)O1)NCCCN1CCOCC1"
measured_target = "S. aureus RN4220"
category_label = "N"


Inquiry: What did the test return for "O=C(O)c1ccnc(N2CC(O)(c3ccc(OCc4c(-c5c(Cl)cccc5Cl)noc4C4CC4)cc3Cl)C2)c1" ?
Reply text: N

Inquiry: What did the test return for "CC(=O)Oc1ccccc1C(=O)Nc1ncc([N+](=O)[O-])s1" ?
Reply text: Y

Inquiry: What did the test return for "CC(C)c1onc(-c2c(Cl)cccc2Cl)c1COc1ccc(C=Cc2cccc(C(=O)O)c2)c(Cl)c1" ?
Reply text: N

Inquiry: What did the test return for "O=C(C[C@@H]1C=C[C@@H](NC(=O)CN2CCOCC2)[C@@H](CO)O1)NCCc1ccncc1" ?
Reply text: N

====

Tested on: S. aureus RN4220
run description: growth inhibition call (relative growth <= 0.2)
setup conditions: 50 µM
Hit rate of the full screen: of about 39,000 compounds, about 500 (1.3%) were called active. The list comes from a sample in which actives are over-represented; it also holds close analogues and randomly drawn compounds.
Pick one and only one: active, inactive

The examples below pair each entry with its known result.
[[record]]
compound = "Cc1cc(CC(=O)O)n(C)c1C(=O)c1ccc(Cl)cc1"
category_label = "inactive"

[[record]]
compound = "O=c1[nH]cccc1F"
category_label = "inactive"

[[record]]
compound = "CN[C@@H]1[C@@H](O)[C@@H](O[C@@H]2[C@@H](O)[C@H](O[C@H]3OC(CN)=CC[C@H]3N)[C@@H](N)C[C@H]2N)OC[C@]1(C)O"
category_label = "inactive"

[[record]]
compound = "CC1(C)Cc2c(-c3ccccc3)c(-c3ccc(Cl)cc3)c(CC(=O)O)n2C1"
category_label = "active"

[[record]]
compound = "COCC#Cc1ccc([C@H]2[C@H]3CN(C(=O)c4ccncc4)CC(=O)N3[C@H]2CO)cc1"
category_label = "inactive"

[[record]]
compound = "C[C@H]1CCCCO[C@H](CN(C)CC2CCCCC2)[C@@H](C)CN([C@@H](C)CO)C(=O)c2cc(NC(=O)Nc3cccc4ccccc34)ccc2O1"
category_label = "inactive"

[[record]]
compound = "CNC1C(O)C(OC2C(N)CC(N)C(OC3OC(CN)=CCC3N)C2O)OCC1(C)O.O=S(=O)(O)O (centres undefined)"
category_label = "active"

[[record]]
compound = "C[C@@H]1CN([C@H](C)CO)C(=O)c2cc(C#Cc3ccccc3F)cnc2O[C@H]1CN(C)S(=O)(=O)c1ccccc1"
category_label = "inactive"


Okay, now this compound:
Inquiry: What did the test return for "COc1cc(OC)cc(-c2ccc([C@H]3CC(=O)C[C@@H](c4ccccc4)C34C(=O)OC(C)(C)OC4=O)cc2)c1" ?
Reply text: inactive

====

Tested on: S. aureus RN4220
run description: growth inhibition call (relative growth <= 0.2)
setup conditions: 50 µM
Screen size: about 39,000 compounds; about 500 (1.3%) were called active. The full list was thinned out, with actives kept by preference.
Pick one and only one: class 1 = active, class 0 = inactive

The examples below pair each entry with its known result.
[[record]]
smiles_structure = "CC[C@@]1(O)C[C@H](O[C@H]2C[C@H](N(C)C)[C@H](O[C@H]3C[C@H](O)[C@H](O[C@H]4CCC(=O)[C@H](C)O4)[C@H](C)O3)[C@H](C)O2)c2c(cc3c(c2O)C(=O)c2c(O)cccc2C3=O)[C@H]1C(=O)OC"
category_label = "class 0"

[[record]]
smiles_structure = "COC(=O)[C@H]1c2cc3c(c(O)c2[C@@H](O[C@@H]2O[C@H](C)[C@H](OC)[C@](C)(OC)[C@@H]2OC)C[C@@]1(C)O)C(=O)c1c(O)cc2c(c1C3=O)O[C@H]1O[C@@]2(C)[C@@H](O)[C@H](N(C)C)[C@@H]1O"
category_label = "class 1"

[[record]]
smiles_structure = "Cc1c(N)nc([C@H](CC(N)=O)NC[C@H](N)C(N)=O)nc1C(=O)N[C@H](C(=O)N[C@H](C)[C@@H](O)[C@H](C)C(=O)N[C@H](C(=O)NCCc1nc(-c2nc(C(=O)NCCCNCCCCN)cs2)cs1)[C@@H](C)O)[C@@H](O[C@@H]1O[C@@H](CO)[C@@H](O)[C@H](O)[C@@H]1O[C@@H]1O[C@H](CO)[C@@H](O)[C@H](OC(N)=O)[C@@H]1O)c1c[nH]cn1"
category_label = "class 1"


Inquiry: What did the test return for "CCCNC(=O)N1[C@@H]2c3cccc(=O)n3C[C@H]1[C@H](CO)[C@H]2C(=O)NCC(F)(F)F" ?
Reply text: class 0

Inquiry: What did the test return for "Cn1cnc(CCNC(=O)C[C@H]2CC[C@H]3[C@@H](COC[C@@H](O)CN3C(=O)Nc3ccc(Cl)cc3)O2)c1" ?
Reply text: class 0

====

Tested on: S. aureus RN4220
run description: growth inhibition call (relative growth <= 0.2)
setup conditions: 50 µM
Out of some 39,000 compounds screened, about 500 (1.3%) were called active. The list comes from a sample in which actives are over-represented; it also holds close analogues and randomly drawn compounds.
Pick one and only one: yes (1) (active), no (0) (inactive)

[[record]]
compound = "COc1cc(C(=O)N2CCN(CCN3C(=O)c4cccc5cccc(c45)C3=O)CC2)cc(OC)c1OC"
measured_target = "S. aureus RN4220"
category_label = "no (0)"

[[record]]
compound = "C[C@H]1CN([C@@H](C)CO)C(=O)c2c(c3ccccc3n2C)-c2ccccc2CO[C@H]1CN(C)Cc1ccc(C(=O)O)cc1"
measured_target = "S. aureus RN4220"
category_label = "no (0)"

[[record]]
compound = "CO[C@@H](CN(C)S(=O)(=O)c1cn(C)cn1)[C@H](C)CN(C(=O)Nc1ccc(C(F)(F)F)cc1)[C@@H](C)CO"
measured_target = "S. aureus RN4220"
category_label = "yes (1)"

[[record]]
compound = "Cc1cc(=O)n2nc(C(=O)O)nc2[nH]1"
measured_target = "S. aureus RN4220"
category_label = "no (0)"

[[record]]
compound = "CO[C@H](CN(C)S(=O)(=O)c1cn(C)cn1)[C@H](C)CN(C(=O)Nc1ccc(C(F)(F)F)cc1)[C@H](C)CO"
measured_target = "S. aureus RN4220"
category_label = "yes (1)"

[[record]]
compound = "CN(C)C1CCN(C(=O)c2cnc(-c3noc4cc(-c5cccc(C(F)(F)F)c5)ccc34)s2)CC1"
measured_target = "S. aureus RN4220"
category_label = "no (0)"

[[record]]
compound = "CO[C@H](CN(C)S(=O)(=O)c1cn(C)cn1)[C@@H](C)CN(C(=O)Nc1ccc(C(F)(F)F)cc1)[C@H](C)CO"
measured_target = "S. aureus RN4220"
category_label = "yes (1)"

[[record]]
compound = "COc1ccc2c(c(Br)c(C(=O)O)n2CCCOc2cccc3ccccc23)c1-c1ccccc1C"
measured_target = "S. aureus RN4220"
category_label = "yes (1)"


Inquiry: What did the test return for NC(Cc1c[nH]c2ccccc12)C(=O)O (stereo not given) ?
Reply text: no (0)

Inquiry: What did the test return for "Cc1noc(C)c1S(=O)(=O)N(C)C[C@H]1OCCCC[C@@H](C)Oc2ccc(NC(=O)Nc3ccc(F)cc3)cc2C(=O)N([C@@H](C)CO)C[C@@H]1C" ?
Reply text: no (0)

Inquiry: What did the test return for "C[C@@H]1CN([C@H](C)CO)C(=O)c2cc(NC(=O)Nc3ccc(C(F)(F)F)cc3)ccc2O[C@@H](C)CCCCO[C@@H]1CN(C)S(=O)(=O)c1cn(C)cn1" ?
Reply text: no (0)

Inquiry: What did the test return for "C[C@H](CO)N1C[C@H](C)[C@@H](CN(C)Cc2ccc(Oc3ccccc3)cc2)Oc2ccc(NS(=O)(=O)c3ccc(F)cc3)cc2C1=O" ?
Reply text: no (0)

Inquiry: What did the test return for "Cc1noc(C)c1S(=O)(=O)N(C)C[C@@H]1Oc2ccc(NS(C)(=O)=O)cc2CC(=O)N([C@H](C)CO)C[C@H]1C" ?
Reply text: no (0)

Inquiry: What did the test return for "Cc1nn(C)c(COc2ccc(N3CCN(S(=O)(=O)N(C)C)CC3)cc2)c1-c1cccc2c(CCCOc3cccc4ccccc34)c(C(=O)O)n(CCN3CCNCC3)c12" ?
Reply text: no (0)

Inquiry: What did the test return for "CO[C@H](CN(C)S(=O)(=O)c1cn(C)cn1)[C@@H](C)CN(C(=O)Nc1ccc(C(F)(F)F)cc1)[C@@H](C)CO" ?
Reply text: yes (1)
